# Test system: HCT 116 (human colon cancer)
# assaySummary: IC50 in cell lines: HCT 116
# Assay type: cell-based
# testParameters: HCT-116, read-out: IC50, HCT 116
assayReadout: IC50 (nM)
Please respond with the number in nM and leave the unit unwritten.

**Query** State its IC50 on HCT 116 (human colon cancer): COC(=O)[C@@H]1[C@H](O)[C@]2(O)c3c(OC)cc(OCCCCN)cc3O[C@]2(c2ccc(OC)cc2)[C@H]1c1ccccc1 [FLV3, reference compound]
**Result** 9
